Known Growth of a selection of compounds
Tested on: MCF7
test.details: Percent growth of breast MCF-7 cell line was determined at 10e-5 M concentration after 48 hr of exposing
Type: functional, Homo sapiens
Return type: number; implicit unit %.

Example entries and their recorded answers appear below.
COc1ccc2c(c1)-c1nn(CCN(C)C)c3ccc(C(=O)NCCCN(C)CCCNC(=O)c4ccc5c6c(c7cc(OC)ccc7nc46)NN5CCN(C)C)c(c13)N2    -18
COc1ccc2c(c1)c(=O)c1c(NCCCN(C)CCCNc3ccc4c(=O)n(CCN(C)C)c(=O)n5c6ccc(OC)cc6c(=O)c3c45)ccc3c(=O)n(CCN(C)C)c(=O)n2c31    -63
CN(C)CCn1c(=O)c2ccc(NCCCN(C)CCCNc3ccc4c(=O)n(CCN(C)C)c(=O)n5c6ccccc6c(=O)c3c45)c3c(=O)c4ccccc4n(c1=O)c23    -96

Would you kindly share the measured Growth for CN(C)CCn1c(=O)c2ccc(NCCCN(C)CCCNc3ccc4c(=O)n(CCN(C)C)c(=O)n5c6ccc(O)cc6c(=O)c3c45)c3c(=O)c4cc(O)ccc4n(c1=O)c23 ?
-32

Would you kindly share the measured Growth for CN(C)CCn1c(=O)c2ccc(NCCCN(C)CCCNc3ccc4c(=O)n(CCN(C)C)c(=O)n5c6ccc([N+](=O)[O-])cc6c(=O)c3c45)c3c(=O)c4cc([N+](=O)[O-])ccc4n(c1=O)c23 ?
-55

Would you kindly share the measured Growth for CN(C)CCN1Nc2c3ccccc3nc3c(C(=O)NCCCN(C)CCCNC(=O)c4ccc5c6c(c7ccccc7nc46)NN5CCN(C)C)ccc1c23 ?
-35

----------
Known IC50 of a selection of compounds
System: LoVo
test.details: Cytotoxicity against human LoVo cancer cell line was determined after 1 hr
Format: functional, cell-based
Return type: number; implicit unit nM.

CN(C)CCn1c(=O)c2ccc(NCCCN(C)CCCNc3ccc4c(=O)n(CCN(C)C)c(=O)n5c6ccccc6c(=O)c3c45)c3c(=O)c4ccccc4n(c1=O)c23    5.2

Alright, here's another compound for you.
Would you kindly share the measured IC50 for COc1cccc2c1C(=O)c1c(O)c3c(c(O)c1C2=O)C[C@@](O)(C(=O)CO)C[C@@H]3O[C@H]1C[C@H](N)[C@H](O)[C@H](C)O1 ?
810

----------
Known IC50 of a selection of molecules
System: HT-29
test.details: Cytotoxicity is determined as the concentration required to inhibit the growth of human colon adenocarcinoma (HT-29) cell line
Format: functional, cell-based
Return type: number; implicit unit nM.

Example entries and their recorded answers appear below.
COc1ccc2c(c1)c(=O)c1c(NCCN(C)CCNc3ccc4c(=O)n(CCN(C)C)c(=O)n5c6ccc(OC)cc6c(=O)c3c45)ccc3c(=O)n(CCN(C)C)c(=O)n2c31    720
COc1ccc2c(c1)-c1nn(CCN(C)C)c3ccc(C(=O)NCCCN(C)CCCNC(=O)c4ccc5c6c(c7cc(OC)ccc7nc46)NN5CCN(C)C)c(c13)N2    3
COc1cc2c(=O)c3c(NCCCN(C)CCCNc4ccc5c(=O)n(CCN(C)C)c(=O)n6c7cc(OC)c(OC)cc7c(=O)c4c56)ccc4c(=O)n(CCN(C)C)c(=O)n(c2cc1OC)c43    250
CN(C)CCN1Nc2c3ccccc3nc3c(C(=O)NCCN(C)CCNC(=O)c4ccc5c6c(c7ccccc7nc46)NN5CCN(C)C)ccc1c23    360
CN(C)CCn1c(=O)c2ccc(NCCCCCCCCNc3ccc4c(=O)n(CCN(C)C)c(=O)n5c6ccccc6c(=O)c3c45)c3c(=O)c4ccccc4n(c1=O)c23    360

Would you kindly share the measured IC50 for CN(C)CCn1c(=O)c2ccc(NCCN(C)CCNc3ccc4c(=O)n(CCN(C)C)c(=O)n5c6ccc(O)cc6c(=O)c3c45)c3c(=O)c4cc(O)ccc4n(c1=O)c23 ?
390

Would you kindly share the measured IC50 for CN(C)CCNC(=O)c1ccc(NCCCN(C)CCCNc2ccc(C(=O)NCCN(C)C)c3nc4ccc(O)cc4c(O)c23)c2c(O)c3cc(O)ccc3nc12 ?
6900

Would you kindly share the measured IC50 for CN(C)CCn1c(=O)c2ccc(NCCN(C)CCN(C)CCNc3ccc4c(=O)n(CCN(C)C)c(=O)n5c6ccccc6c(=O)c3c45)c3c(=O)c4ccccc4n(c1=O)c23 ?
390

Would you kindly share the measured IC50 for CN(C)CCNC(=O)c1ccc(NCCCN(C)CCCNc2ccc(C(=O)NCCN(C)C)c3nc4ccccc4c(O)c23)c2c(O)c3ccccc3nc12 ?
0.43

Would you kindly share the measured IC50 for CN(C)CCn1c(=O)c2ccc(NCCCCCCNc3ccc4c(=O)n(CCN(C)C)c(=O)n5c6ccccc6c(=O)c3c45)c3c(=O)c4ccccc4n(c1=O)c23 ?
43

Would you kindly share the measured IC50 for CN(C)CCn1c(=O)c2ccc(NCCCCCCCCCCCCNc3ccc4c(=O)n(CCN(C)C)c(=O)n5c6ccccc6c(=O)c3c45)c3c(=O)c4ccccc4n(c1=O)c23 ?
3500

Would you kindly share the measured IC50 for COc1ccc2nc3c(C(=O)NCCN(C)C)ccc(NCCCN(C)CCCNc4ccc(C(=O)NCCN(C)C)c5nc6ccc(OC)cc6c(O)c45)c3c(O)c2c1 ?
39

Would you kindly share the measured IC50 for CN(C)CCN1Nc2c3cc(O)ccc3nc3c(C(=O)NCCCN(C)CCCNC(=O)c4ccc5c6c(c7cc(O)ccc7nc46)NN5CCN(C)C)ccc1c23 ?
780

Would you kindly share the measured IC50 for CN(C)CCNc1ccc(C(=O)NCCCN(C)CCCNC(=O)c2ccc(NCCN(C)C)c3c(=O)c4ccccc4[nH]c23)c2[nH]c3ccccc3c(=O)c12 ?
57

Would you kindly share the measured IC50 for COc1ccc2c(c1)-c1nn(CCN(C)C)c3ccc(C(=O)NCCN(C)CCNC(=O)c4ccc5c6c(c7cc(OC)ccc7nc46)NN5CCN(C)C)c(c13)N2 ?
150

Would you kindly share the measured IC50 for COc1ccc2nc3c(C(=O)NCCCN(C)CCCNC(=O)c4ccc(NCCN(C)C)c5c(O)c6cc(OC)ccc6nc45)ccc(NCCN(C)C)c3c(O)c2c1 ?
2

Would you kindly share the measured IC50 for CN(C)CCn1c(=O)c2ccc(NCCCNc3ccc4c(=O)n(CCN(C)C)c(=O)n5c6ccccc6c(=O)c3c45)c3c(=O)c4ccccc4n(c1=O)c23 ?
390

Would you kindly share the measured IC50 for CN(C)CCn1c(=O)c2ccc(NCCN(C)CCNc3ccc4c(=O)n(CCN(C)C)c(=O)n5c6ccccc6c(=O)c3c45)c3c(=O)c4ccccc4n(c1=O)c23 ?
110

Would you kindly share the measured IC50 for CN(C)CCNc1ccc(C(=O)NCCCN(C)CCCNC(=O)c2ccc(NCCN(C)C)c3c(O)c4cc(O)ccc4nc23)c2nc3ccc(O)cc3c(O)c12 ?
800

Would you kindly share the measured IC50 for CN(C)CCN1Nc2c3ccccc3nc3c(C(=O)NCCCN(C)CCCNC(=O)c4ccc5c6c(c7ccccc7nc46)NN5CCN(C)C)ccc1c23 ?
3
